Just for reference, ChEMBL document CHEMBL1201861 is where these values come from.

System: KARPAS-45;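 further: inhibition of cell line growth, read out through a viability assay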
method summary: cells
Assay type: functional, cell-based
details: Homo sapiens
Description: SANGER: Inhibition of human KARPAS-45 cell growth in a cell viability assay.
pIC50: −log10 of the molar value.
Parameter pIC50: see the listing below.
measurement kind: pIC50

compound string	measurement target	limit sign	quantitative result
Cc1[nH]c(/C=C2\C(=O)Nc3ccc(S(=O)(=O)Cc4c(Cl)cccc4Cl)cc32)c(C)c1C(=O)N1CCC[C@@H]1CN1CCCC1	KARPAS-45	<	5.70
O=C(CCCCCCC(=O)Nc1ccccc1)NO	KARPAS-45	=	6.76
C/C(O)=C(\C#N)C(=O)Nc1cc(Br)ccc1Br	KARPAS-45	<	4.80
Cn1cc(/C=C2\C(=O)Nc3cccnc32)c2ccccc21	KARPAS-45	<	5.70
Cc1n[nH]c2ccc(-c3cncc(OC[C@@H](N)Cc4c[nH]c5ccccc45)c3)cc12	KARPAS-45	=	6.53
Fc1cc(-c2cc[nH]/c(=N/c3ccc(-n4cnc(N5CCOCC5)n4)cc3)n2)cc(N2CCOCC2)c1	KARPAS-45	=	6.10
C[C@]12O[C@H](C[C@]1(O)CO)n1c3ccccc3c3c4c(c5c6ccccc6n2c5c31)CNC4=O	KARPAS-45	=	7.28

* * *

Test system: PLC-PRF-5;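 further: growth inhibition of human PLC-PRF-5 cells, read out with a viability assay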
method summary: cells
Type: functional, cell-based
details: Homo sapiens
Description: SANGER: Inhibition of human PLC-PRF-5 cell growth in a cell viability assay.

compound	measurement target	IC50
CC(C)=CC[C@@H](O)C1=CC(=O)c2c(O)ccc(O)c2C1=O [SHIKONIN]	PLC-PRF-5	1820 nM

* * *

Tested on: HCT-15;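 further: cell viability readout, IC50 reflecting suppression of HCT-15 cell growth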
method summary: cells
Format: functional, cell-based
details: Homo sapiens
Description: SANGER: Inhibition of human HCT-15 cell growth in a cell viability assay.
Parameter IC50: see the listing below.

compound string	measurement target	limit sign	IC50 [µM]
NC(=O)c1ncn([C@@H]2O[C@H](COP(=O)(O)O)[C@@H](O)[C@H]2O)c1N	HCT-15	=	1890
CO[C@@]12[C@H](COC(N)=O)C3=C(C(=O)C(C)=C(N)C3=O)N1C[C@@H]1N[C@@H]12	HCT-15	=	0.465
O=c1[nH]c2ccccc2n1C1CCN(Cc2ccc(-c3nc4cc5[nH]cnc5cc4nc3-c3ccccc3)cc2)CC1	HCT-15	>	2.56
COc1cc(Nc2c(C#N)cnc3cc(OCCCN4CCN(C)CC4)c(OC)cc23)c(Cl)cc1Cl	HCT-15	>	2

* * *

Tested on: EM-2;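 further: growth inhibition of EM-2 cells, read out with a cell viability assay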
method summary: cells
Format: functional, cell-based
details: Homo sapiens
Description: SANGER: Inhibition of human EM-2 cell growth in a cell viability assay.
measurement kind: log10(IC50) (log10 of the value in nM)

compound	log10(IC50)
COc1cc(Nc2c(C#N)cnc3cc(OCCCN4CCN(C)CC4)c(OC)cc23)c(Cl)cc1Cl	2.64
C[C@]12O[C@H](C[C@]1(O)CO)n1c3ccccc3c3c4c(c5c6ccccc6n2c5c31)CNC4=O	2.65
CCn1c(-c2nonc2N)nc2cnc(Oc3cccc(NC(=O)c4ccc(OCCN5CCOCC5)cc4)c3)cc21 [GSK-269962A]	3.39
CC[C@]1(O)C[C@@H]2CN(CCc3c([nH]c4ccccc34)[C@@](C(=O)OC)(c3cc4c(cc3OC)N(C)[C@H]3[C@@](O)(C(=O)OC)[C@H](OC(C)=O)[C@]5(CC)C=CCN6CC[C@]43[C@@H]65)C2)C1	0.73
CNC(=O)c1ccccc1Sc1ccc2c(/C=C/c3ccccn3)n[nH]c2c1	2.23
Cc1ccc(NC(=O)c2cccc(C(C)(C)C#N)c2)cc1Nc1ccc2ncn(C)c(=O)c2c1	2.29

* * *

Parameter IC50: see the listing below.
Test system: COLO-824
method summary: cells
Assay type: functional, cell-based
details: Homo sapiens
Description: SANGER: Inhibition of human COLO-824 cell growth in a cell viability assay.

compound string	IC50
N#C/C(=C1/Nc2ccccc2S1)c1ccnc(NCCc2cccnc2)n1	> 8000 nM
Fc1cc(-c2cc[nH]/c(=N/c3ccc(-n4cnc(N5CCOCC5)n4)cc3)n2)cc(N2CCOCC2)c1	637 nM
Cc1ccc(NC(=O)c2cccc(C(C)(C)C#N)c2)cc1Nc1ccc2ncn(C)c(=O)c2c1	> 4000 nM
CCNc1cc(N[C@H]2CC[C@@H](O)CC2)nc(Nc2ccc3c(ccn3Cc3ccccc3)c2)n1	> 5120 nM
CC[C@]1(O)C[C@@H]2CN(CCc3c([nH]c4ccccc34)[C@@](C(=O)OC)(c3cc4c(cc3OC)N(C)[C@H]3[C@@](O)(C(=O)OC)[C@H](OC(C)=O)[C@]5(CC)C=CCN6CC[C@]43[C@@H]65)C2)C1	> 100 nM

* * *

Test system: CTB-1
method summary: cells
Type: functional, cell-based
details: Homo sapiens
Description: SANGER: Inhibition of human CTB-1 cell growth in a cell viability assay.

compound	limit sign	IC50 [nM]
C/C=C(/C)C(=O)O[C@H]1C(C)=C2[C@H]([C@@H]1OC(=O)CCCCCCC)[C@@](C)(OC(C)=O)C[C@H](OC(=O)CCC)[C@@]1(O)[C@H]2OC(=O)[C@@]1(C)O	=	17
Cc1[nH]c(/C=C2\C(=O)Nc3ccc(S(=O)(=O)Cc4c(Cl)cccc4Cl)cc32)c(C)c1C(=O)N1CCC[C@@H]1CN1CCCC1	>	2000
CCn1c(-c2nonc2N)nc2cnc(Oc3cccc(NC(=O)c4ccc(OCCN5CCOCC5)cc4)c3)cc21 [GSK-269962A]	>	2500
CCNc1cc(N[C@H]2CC[C@@H](O)CC2)nc(Nc2ccc3c(ccn3Cc3ccccc3)c2)n1	>	5120
CC(=O)c1c(C)c2cnc(Nc3ccc(N4CCNCC4)cn3)nc2n(C2CCCC2)c1=O	=	405
O=c1[nH]c2ccccc2n1C1CCN(Cc2ccc(-c3nc4cc5[nH]cnc5cc4nc3-c3ccccc3)cc2)CC1	>	2560
Fc1cc(-c2cc[nH]/c(=N/c3ccc(-n4cnc(N5CCOCC5)n4)cc3)n2)cc(N2CCOCC2)c1	=	1110

* * *

Parameter IC50: see the listing below.
Tested on: C8166;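 further: growth inhibition of human C8166 cells measured by a cell viability assay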
method summary: cells
Type: functional, cell-based
details: Homo sapiens
Description: SANGER: Inhibition of human C8166 cell growth in a cell viability assay.

compound string	limit sign	IC50, nM
O=c1cc(N2CCOCC2)oc2c(-c3cccc4c3sc3ccccc34)cccc12	>	2000
CC[C@]1(O)C[C@@H]2CN(CCc3c([nH]c4ccccc34)[C@@](C(=O)OC)(c3cc4c(cc3OC)N(C)[C@H]3[C@@](O)(C(=O)OC)[C@H](OC(C)=O)[C@]5(CC)C=CCN6CC[C@]43[C@@H]65)C2)C1	=	27
Cc1nc(Nc2ncc(C(=O)Nc3c(C)cccc3Cl)s2)cc(N2CCN(CCO)CC2)n1	>	1280
Cc1n[nH]c2ccc(-c3cncc(OC[C@@H](N)Cc4c[nH]c5ccccc45)c3)cc12	>	1020
O=C(CCCCCCC(=O)Nc1ccccc1)NO	=	2210
N#C/C(=C1/Nc2ccccc2S1)c1ccnc(NCCc2cccnc2)n1	=	4470
Cn1c(=O)n(-c2ccc(C(C)(C)C#N)cc2)c2c3cc(-c4cnc5ccccc5c4)ccc3ncc21	>	2000

* * *

System: 8505C
method summary: cells
Assay type: functional, cell-based
details: Homo sapiens
Description: SANGER: Inhibition of human 8505C cell growth in a cell viability assay.
pIC50: −log10 of the molar value.
Parameter pIC50: see the listing below.

compound string	pIC50
N#C/C(=C1/Nc2ccccc2S1)c1ccnc(NCCc2cccnc2)n1	5.54
O=c1cc(N2CCOCC2)oc2c(-c3cccc4c3sc3ccccc34)cccc12	< 5.70
O=c1[nH]c2ccccc2n1C1CCN(Cc2ccc(-c3nc4cc5[nH]cnc5cc4nc3-c3ccccc3)cc2)CC1	< 5.59

* * *

Tested on: SH-4
method summary: cells
Format: functional, cell-based
details: Homo sapiens
Description: SANGER: Inhibition of human SH-4 cell growth in a cell viability assay.
Parameter IC50: see the listing below.
measurement kind: IC50

compound string	measurement target	measurement kind	result
NC(=O)c1ncn([C@@H]2O[C@H](COP(=O)(O)O)[C@@H](O)[C@H]2O)c1N	SH-4	IC50	> 2000 µM
O=c1[nH]c2ccccc2n1C1CCN(Cc2ccc(-c3nc4cc5[nH]cnc5cc4nc3-c3ccccc3)cc2)CC1	SH-4	IC50	> 2.56 µM
N#C/C(=C1/Nc2ccccc2S1)c1ccnc(NCCc2cccnc2)n1	SH-4	IC50	> 8 µM
CC(C)=CC[C@@H](O)C1=CC(=O)c2c(O)ccc(O)c2C1=O	SH-4	IC50	0.371 µM
COc1cc(Nc2c(C#N)cnc3cc(OCCCN4CCN(C)CC4)c(OC)cc23)c(Cl)cc1Cl	SH-4	IC50	> 2 µM

* * *

System: HO-1-N-1
method summary: cells
Assay type: functional, cell-based
details: Homo sapiens
Description: SANGER: Inhibition of human HO-1-N-1 cell growth in a cell viability assay.
pIC50: −log10 of the molar value.
Parameter pIC50: see the listing below.
measurement kind: pIC50

molecule	measurement target	measurement kind	limit sign	quantitative result
CC(=O)c1c(C)c2cnc(Nc3ccc(N4CCNCC4)cn3)nc2n(C2CCCC2)c1=O	HO-1-N-1	pIC50	=	6.02
C[C@]1(c2nc3c(C(N)=O)cccc3[nH]2)CCCN1	HO-1-N-1	pIC50	<	5.30
Cn1c(=O)n(-c2ccc(C(C)(C)C#N)cc2)c2c3cc(-c4cnc5ccccc5c4)ccc3ncc21	HO-1-N-1	pIC50	=	7.60
COc1cc(Nc2c(C#N)cnc3cc(OCCCN4CCN(C)CC4)c(OC)cc23)c(Cl)cc1Cl	HO-1-N-1	pIC50	=	5.90
CC[C@]1(O)C[C@@H]2CN(CCc3c([nH]c4ccccc34)[C@@](C(=O)OC)(c3cc4c(cc3OC)N(C)[C@H]3[C@@](O)(C(=O)OC)[C@H](OC(C)=O)[C@]5(CC)C=CCN6CC[C@]43[C@@H]65)C2)C1	HO-1-N-1	pIC50	=	8.76
C/C(O)=C(\C#N)C(=O)Nc1cc(Br)ccc1Br	HO-1-N-1	pIC50	<	4.80
CC[C@@]1(O)C(=O)OCc2c1cc1n(c2=O)Cc2cc3ccccc3nc2-1	HO-1-N-1	pIC50	=	9.08
CC(O)(CS(=O)(=O)c1ccc(F)cc1)C(=O)Nc1ccc(C#N)c(C(F)(F)F)c1 (stereo not drawn) [BICALUTAMIDE]	HO-1-N-1	pIC50	<	5.99
